Measured AMO (ammonia nitrogen), listed per entry.
Tested on: rumen fermentation (strained rumen fluid)
ASSAY PROCEDURE: Rumen in vitro model
Parameters: species or system steer
EXPERIMENTAL PARAMETERS: 0.50 ppm; 6 h
OBSERVED PROPERTY: AMO (ammonia nitrogen)

{"COMPOUND": "CC[C@@]1([C@@H]2O[C@@H]([C@H]3O[C@@](O)(CO)[C@H](C)C[C@@H]3C)C[C@@H]2C)CC[C@H]([C@]2(C)CC[C@]3(C[C@H](O)[C@@H](C)[C@@H]([C@@H](C)[C@@H](OC)[C@H](C)C(=O)O)O3)O2)O1 [Monensin, monensin]", "RESULT": "103 % of control"}
{"COMPOUND": "CNC1C(=O)NC2C(=O)NC(C(=O)NC3C(=O)NC4C(=O)NC(C(=O)NC(C(=O)O)c5cc(O)cc(OC6OC(CO)C(O)C(O)C6O)c5-c5cc4ccc5O)C(O)c4cc(Cl)c(c(Cl)c4)Oc4cc3cc(c4OC3OC(C(=O)O)C(O)C(O)C3NC(=O)CCCCCCCC(C)C)Oc3ccc(cc3Cl)C2O)c2cc(cc(O)c2Cl)Oc2cc1ccc2O (stereo not shown) [AAD-216 B]", "RESULT": "96 % of control"}
{"COMPOUND": "CCCCCCCCCC(=O)NC1C(Oc2c3cc4cc2Oc2c(Cl)cc(cc2Cl)C(O)C2NC(=O)C(NC(=O)C4NC(=O)C4NC(=O)C(NC(=O)C(NC)c5ccc(O)c(c5)Oc5cc(O)c(Cl)c4c5)C(O)c4ccc(c(Cl)c4)O3)c3ccc(O)c(c3)-c3c(OC4OC(CO)C(O)C(O)C4O)cc(O)cc3C(C(=O)O)NC2=O)OC(C(=O)O)C(O)C1O (stereo not shown) [AAD-216 A]", "RESULT": "102 % of control"}
{"COMPOUND": "CNC1C(=O)NC2C(=O)NC(C(=O)NC3C(=O)NC4C(=O)NC(C(=O)NC(C(=O)O)c5cc(O)cc(OC6OC(CO)C(O)C(O)C6O)c5-c5cc4ccc5O)C(O)c4cc(Cl)c(c(Cl)c4)Oc4cc3cc(c4OC3OC(C(=O)O)C(O)C(O)C3NC(=O)CCCCCCCCC(C)C)Oc3ccc(cc3Cl)C2O)c2cc(cc(O)c2Cl)Oc2cc1ccc2O (stereo not shown) [AAD-216 C]", "RESULT": "99 % of control"}

Cited source for all entries: patent US4694069A
